Measurement Notes: Pharmacokinetic evaluation in mice, IV and PO
Type: in vivo, Balb/c female mice
Reported Conditions: female, Balb/c; IV(1 mg/kg), mouse plasma
# Lookup of reported AUC(0-t) keyed by entry
Quantity Name: AUC(0-t) (µM·h)

compound="COc1ccc(C(O)c2cc(-c3ccnc4c(F)c(N5CCOCC5)cc(F)c34)c(F)cc2Cl)nn1 (single isomer, unassigned)" value_observed=1.98
compound="COc1ccc([C@@H](O)c2cc(-c3nncc4cc(N5CCOCC5)ccc34)c(F)cc2Cl)nn1 [Embodiment M3814, reference compound]" value_observed=1.33
compound="COc1ccc(C(O)c2cc(-c3cnnc4cc(N5CCOCC5)ccc34)c(F)cc2Cl)nn1 (stereo not drawn)" value_observed=1.85

----------
Measurement Notes: Pharmacokinetic evaluation in mice, IV and PO
Format: in vivo, Balb/c female mice
Reported Conditions: PO(2 mg/kg), mouse plasma
Quantity Name: Cmax (nM)

compound="COc1ccc(C(O)c2cc(-c3cnnc4c(F)c(N5CCOCC5)cc(F)c34)c(F)cc2Cl)nn1 (single isomer, unassigned)" quantity_name=Cmax value_observed=448

----------
Measurement Notes: Pharmacokinetic evaluation in mice, IV and PO
Type: in vivo, Balb/c female mice
Reported Conditions: female, Balb/c; PO(10 mg/kg), mouse plasma; read-out: Tmax
Quantity Name: Tmax (min)

compound="COc1ccc([C@@H](O)c2cc(-c3nncc4cc(N5CCOCC5)ccc34)c(F)cc2Cl)nn1 [Embodiment M3814, reference compound]" quantity_unit=min value_observed=30

----------
# Lookup of reported AUC(0-t) keyed by entry
Measurement Notes: Pharmacokinetic evaluation in mice, IV and PO
Format: in vivo, Balb/c female mice
Reported Conditions: female, Balb/c; PO(2 mg/kg), mouse plasma
Quantity Name: AUC(0-t) (µM·h)

molecule="COc1ccc([C@@H](O)c2cc(-c3nncc4cc(N5CCOCC5)ccc34)c(F)cc2Cl)nn1 [Embodiment M3814, reference compound]" quantity_name=AUC(0-t) quantity_unit=µM·h value_observed=0.688
molecule="COc1ccc(C(O)c2cc(-c3cnnc4cc(N5CCOCC5)ccc34)c(F)cc2Cl)nn1 (stereo not drawn) [Embodiment 3]" quantity_name=AUC(0-t) quantity_unit=µM·h value_observed=1.79
molecule="COc1ccc(C(O)c2cc(-c3ccnc4c(F)c(N5CCOCC5)cc(F)c34)c(F)cc2Cl)nn1 (single isomer, unassigned) [Embodiment 22]" quantity_name=AUC(0-t) quantity_unit=µM·h value_observed=1.98

----------
Measurement Notes: Pharmacokinetic evaluation in mice, IV and PO
Type: in vivo, Balb/c female mice
Reported Conditions: female, Balb/c; IV(2 mg/kg), mouse plasma
Quantity Name: half-life

compound="COc1ccc([C@@H](O)c2cc(-c3nncc4cc(N5CCOCC5)ccc34)c(F)cc2Cl)nn1 [Embodiment M3814, reference compound]" quantity_name=half-life value_observed="28.7 min"

----------
PI3K (p120γ) (Homo sapiens): recorded IC50 for assorted molecules
Sequence (P48736 whole entry): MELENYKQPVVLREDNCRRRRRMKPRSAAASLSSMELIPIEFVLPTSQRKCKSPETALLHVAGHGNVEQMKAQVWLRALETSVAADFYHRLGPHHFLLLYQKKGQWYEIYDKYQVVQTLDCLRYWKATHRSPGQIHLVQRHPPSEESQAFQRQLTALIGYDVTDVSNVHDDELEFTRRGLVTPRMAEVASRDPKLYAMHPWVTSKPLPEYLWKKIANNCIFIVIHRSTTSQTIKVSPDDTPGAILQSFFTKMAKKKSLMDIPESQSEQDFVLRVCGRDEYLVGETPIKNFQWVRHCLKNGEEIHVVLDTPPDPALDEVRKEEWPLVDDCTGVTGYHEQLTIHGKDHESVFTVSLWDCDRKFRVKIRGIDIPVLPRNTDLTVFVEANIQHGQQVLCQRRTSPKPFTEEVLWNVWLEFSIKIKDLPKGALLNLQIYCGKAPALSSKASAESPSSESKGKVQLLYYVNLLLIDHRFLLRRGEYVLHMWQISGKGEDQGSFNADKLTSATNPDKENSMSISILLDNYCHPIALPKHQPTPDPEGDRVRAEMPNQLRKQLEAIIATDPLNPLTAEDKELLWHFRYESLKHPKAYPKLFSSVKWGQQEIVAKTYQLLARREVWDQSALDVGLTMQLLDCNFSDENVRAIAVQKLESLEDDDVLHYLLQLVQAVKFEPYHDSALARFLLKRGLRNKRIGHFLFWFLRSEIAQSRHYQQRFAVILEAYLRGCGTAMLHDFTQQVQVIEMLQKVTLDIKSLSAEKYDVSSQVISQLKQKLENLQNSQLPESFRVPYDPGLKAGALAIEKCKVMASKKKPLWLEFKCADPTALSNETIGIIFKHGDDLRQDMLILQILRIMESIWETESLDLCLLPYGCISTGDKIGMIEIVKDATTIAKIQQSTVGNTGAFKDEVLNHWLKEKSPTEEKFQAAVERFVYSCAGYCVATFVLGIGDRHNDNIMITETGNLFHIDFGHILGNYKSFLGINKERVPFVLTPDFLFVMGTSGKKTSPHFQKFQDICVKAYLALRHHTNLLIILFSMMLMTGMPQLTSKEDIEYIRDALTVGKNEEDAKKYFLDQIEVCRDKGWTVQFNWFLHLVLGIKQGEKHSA
Quantity Name: IC50 (µM)

molecule="COc1ccc(C(O)c2cc(-c3cnnc4c(F)c(N5CCOCC5)cc(F)c34)c(F)cc2Cl)nn1 (single isomer, unassigned) [Embodiment 19]" target_desc="PI3K (p120γ) (Homo sapiens)" quantity_name=IC50 value_observed=9.15
molecule="COc1ccc([C@@H](O)c2cc(-c3nncc4cc(N5CCOCC5)ccc34)c(F)cc2Cl)nn1 [Embodiment M3814, reference compound]" target_desc="PI3K (p120γ) (Homo sapiens)" quantity_name=IC50 value_observed=1.22
